molecular target: dCK-C3S-S74E (Homo sapiens, UniProt P27707, form not given/S74E); experiment: Enzymatic assay (PK/LDH coupled), dC phosphorylation by dCK in the presence of ATP; assay type: biochemical; settings: ATP; read-out: enzymatic inhibition IC50
Sequence (P27707 whole entry S74E, form open): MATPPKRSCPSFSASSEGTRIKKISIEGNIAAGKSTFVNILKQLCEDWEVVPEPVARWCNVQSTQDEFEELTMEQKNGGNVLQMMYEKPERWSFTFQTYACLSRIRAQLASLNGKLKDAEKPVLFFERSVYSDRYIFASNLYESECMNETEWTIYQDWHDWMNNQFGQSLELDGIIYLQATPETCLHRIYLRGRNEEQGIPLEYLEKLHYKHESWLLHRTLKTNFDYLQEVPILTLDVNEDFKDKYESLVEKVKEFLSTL
pIC50: −log10 of the molar value.
Readout label: pIC50

Which measured pIC50 value corresponds to `CCCN(c1nc(-c2cccnc2)cs1)c1cc(-c2ccc(S(=O)(=O)N3CCN(C)CC3)cc2)ccc1C` ?
< 4.00

* * *

Examples of molecules with documented THERMAL SHIFT ASSAY +Tm (°) follow.
system: dCK-C3S-S74E; assay: Thermal shift assay (TSA); conditions: mean ± SD
Sequence (P27707 whole entry S74E, form open): as above

Known results for molecules:
Which measured THERMAL SHIFT ASSAY +Tm (°) value corresponds to `Cc1ccc(NC(=O)c2ccc(CN3CCN(C)CC3)cc2)cc1Nc1nc(-c2nc(N)cc(N)n2)cs1` ?
17.3 ± 0.2 °

Which measured THERMAL SHIFT ASSAY +Tm (°) value corresponds to `Cc1ccc(NC(=O)c2cnc(CN3CCN(C)CC3)nc2)cc1Nc1nc(-c2nccc(N)n2)cs1` ?
10.3 ± 0.0 °

Which measured THERMAL SHIFT ASSAY +Tm (°) value corresponds to `CCCN(c1nc(-c2nc(N)cc(N)n2)cs1)c1cc(-c2ccc(NC(=O)N3CCN(C)CC3)nc2)ccc1C` ?
19.2 ± 0.8 °

Which measured THERMAL SHIFT ASSAY +Tm (°) value corresponds to `CCCN(c1nc(-c2nc(N)cc(N)n2)co1)c1cc(-c2ccc(S(=O)(=O)N3CCN(C)CC3)cc2)ccc1C` ?
18.2 ± 0.9 °

Next:
Which measured THERMAL SHIFT ASSAY +Tm (°) value corresponds to `Cc1ccc(OCc2ccc(CN3CCN(C)CC3)cc2)cc1Nc1nc(-c2nccc(N)n2)cs1` ?
15.2 ± 0.0 °

Which measured THERMAL SHIFT ASSAY +Tm (°) value corresponds to `Cc1ccc(NC(=O)c2ccc(CN3CCN(C)CC3)cc2)cc1Nc1nc(-c2ncc(F)c(N)n2)cs1` ?
14.3 ± 0.4 °

Which measured THERMAL SHIFT ASSAY +Tm (°) value corresponds to `CCCN(c1nc(-c2nccc(N)n2)cs1)c1cc(-c2ccc(CCN3CCN(C)CC3)nc2)ccc1C` ?
17.1 ± 0.2 °

Which measured THERMAL SHIFT ASSAY +Tm (°) value corresponds to `Cc1ccc(-n2cc(CNS(C)(=O)=O)nn2)cc1N(CC(C)C)c1nc(-c2nc(N)cc(N)n2)cs1` ?
13.5 ± 0.7 °
